- Method description: Selectivity ratio of Ki for kappa opioid receptor in guinea pig cerebrum membranes to Ki for delta opioid receptor in rat cerebrum membranes
- Type: cell membranes
- Reported conditions: Membrane
With a cut-off of 30, any Ratio Ki strictly below it is called TRUE; any Ratio Ki meeting it or above is called FALSE.

Consider the following illustrative entries.
Problem: For the molecule CC(C)CN1CC[C@]23Cc4nc5ccccc5cc4C[C@H]2[C@H]1Cc1ccc(O)cc13 , is Ratio Ki under 30?
TRUE

Here's an entry: CN1CC[C@]23Cc4nc5ccccc5cc4C[C@H]2[C@H]1Cc1ccc(O)cc13 . Is its Ratio Ki below 30?
FALSE

Find out if reported Ratio Ki for CN1CC[C@]23Cc4nc5ccccc5cc4C[C@H]2[C@H]1Cc1cccc(O)c13 is less than 30
FALSE

Could you please tell me whether Ratio Ki recorded for Oc1ccc2c(c1)[C@]13CCN(CC4CC4)[C@H](C2)[C@@H]1Cc1cc2ccccc2nc1C3 is less than 30?
TRUE

In plain terms, does Oc1ccc2c3c1O[C@H]1c4nc5ccccc5cc4C[C@H]4[C@@H](C2)N(CC2CC2)CC[C@]314 come in under 30 for Ratio Ki?
FALSE

Now let's try a different one.
Ratio Ki strictly < 30 for this molecule? Oc1cccc2c1[C@]13CCN(CC4CC4)[C@H](C2)[C@@H]1Cc1cc2ccccc2nc1C3
FALSE
